Cited source for all entries: paper PMC3731320

test system: TLR2; assay: Pam2CSK4-stimulated IL-8 release in 293/hTLR2 cells; format: cell-based, human; details: read-out: IC50 293/hTLR2 Pam2CSK4; IL-8 end-point; 3–10 ng/mL Pam2CSK4; listed as GSK669 (1)
RECORDED METRIC: IC50

> print(dat)
                                 cpd.smiles  assayed.target  recorded.metric  measured.value
1  O=C(Cn1c(CCNC(=O)c2ccccc2)nc2ccccc21)Nc1ccc2c(c1)CCC2            TLR2             IC50         > 80 µM

* * *

test system: TNFR1; assay: TNFα-stimulated (TNFR1-induced) IL-8 release in 293/hNOD2 cells; format: cell-based, human; settings: read-out: IC50 293/hNOD2 TNFα; IL-8 end-point; 20 ng/mL rhTNFα; listed as GSK669
RECORDED METRIC: IC50

> print(dat)
                                 cpd.smiles  assayed.target  measured.value
1  O=C(Cn1c(CCNC(=O)c2ccccc2)nc2ccccc21)Nc1ccc2c(c1)CCC2           TNFR1         > 30 µM
